Where a name gives a salt, the structure may show the parent alone.
melting point for assorted compounds

| compound | melting point |
| --- | --- |
| COc1cccc2c(C(C)CN3CCN(c4cccc5cccnc45)CC3)coc12 (stereo not shown) (as salt: HCl) | 192 °C |
| Fc1ccc(N2CCN([C@H]3CC[C@@H](c4coc5ccccc54)CC3)CC2)c2ncccc12 | 142 to 144 °C |
| Clc1cc(N2CCN([C@H]3CC[C@H](c4csc5ccccc54)CC3)CC2)c2ncccc2c1 | 143 to 144 °C |
| Fc1ccc2scc([C@H]3CC[C@@H](N4CCN(c5ccc(Cl)c6cccnc56)CC4)CC3)c2c1 | 192 to 197 °C |
| COc1cccc2c1occ2[C@H]1CC[C@@H](N2CCN(c3cc(F)cc4cccnc34)CC2)CC1 | 75 to 83 °C |
| Fc1cc(N2CCN([C@H]3CC[C@H](c4coc5ccccc54)CC3)CC2)c2ncccc2c1 | 195 to 197 °C |
| COc1cc(N2CCN([C@H]3CC[C@H](c4cc5ccccc5s4)CC3)CC2)c2ncccc2c1 | 193 to 194 °C |
| COc1cc(N2CCN([C@H]3CC[C@H](c4csc5ccccc54)CC3)CC2)c2ncccc2c1 | 166 to 168 °C |
| Fc1cc(N2CCN(CCc3coc4ccc(F)cc34)CC2)c2ncccc2c1 (as salt: HCl) | 55 °C |
| Fc1ccc(N2CCN([C@H]3CC[C@H](c4coc5ccccc54)CC3)CC2)c2ncccc12 | 162 to 164 °C |
| COc1cc(N2CCN(CCc3coc4ccc(F)cc34)CC2)c2ncccc2c1 (as salt: HCl) | 80 °C |
| COc1ccc2occ(CCN3CCN(c4cccc5cccnc45)CC3)c2c1 | 78 °C |
| COc1cc(N2CCN([C@H]3CC[C@@H](c4csc5ccccc54)CC3)CC2)c2ncccc2c1 | 148 to 150 °C |
| Fc1cc(N2CCN([C@H]3CC[C@H](c4csc5ccccc54)CC3)CC2)c2ncccc2c1 | 195 °C |
| COc1cccc2c1occ2[C@H]1CC[C@H](N2CCN(c3cccc4cccnc34)CC2)CC1 | 195 to 197 °C |
| Fc1cc(N2CCN(C3CCC(c4cc5ccccc5o4)CC3)CC2)c2ncccc2c1 (stereo not shown) | 91 to 93 °C |

----------
# subject_of_test: 5-HT transporter (Rattus norvegicus)
# Sequence (P31652 whole entry): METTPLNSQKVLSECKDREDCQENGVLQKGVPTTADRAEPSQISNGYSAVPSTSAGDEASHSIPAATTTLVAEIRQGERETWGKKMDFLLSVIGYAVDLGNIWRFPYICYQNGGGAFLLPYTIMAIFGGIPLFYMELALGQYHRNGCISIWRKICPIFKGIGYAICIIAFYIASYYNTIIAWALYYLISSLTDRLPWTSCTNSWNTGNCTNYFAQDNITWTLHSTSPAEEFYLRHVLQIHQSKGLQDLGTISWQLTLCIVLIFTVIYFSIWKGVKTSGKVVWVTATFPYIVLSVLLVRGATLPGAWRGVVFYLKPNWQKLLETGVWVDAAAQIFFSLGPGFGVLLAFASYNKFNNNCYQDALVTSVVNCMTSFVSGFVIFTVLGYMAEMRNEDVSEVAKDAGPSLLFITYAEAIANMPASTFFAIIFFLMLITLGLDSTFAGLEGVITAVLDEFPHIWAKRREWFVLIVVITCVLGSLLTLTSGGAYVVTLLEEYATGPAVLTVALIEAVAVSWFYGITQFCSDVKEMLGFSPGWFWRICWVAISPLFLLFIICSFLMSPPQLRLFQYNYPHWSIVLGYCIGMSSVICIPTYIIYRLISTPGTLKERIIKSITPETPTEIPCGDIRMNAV
I'd appreciate it if you marked entries Condition met when Ki is lower than 50 nM and Condition not met when it is not.

| compound | label_class |
| --- | --- |
| COc1ccc2occ([C@H]3CC[C@H](N4CCN(c5ccc(Cl)c6cccnc56)CC4)CC3)c2c1 | Condition not met |
| Fc1cc(N2CCN(CCc3coc4cc(Cl)ccc34)CC2)c2ncccc2c1 | Condition not met |
| CC(CN1CCN(c2cccc3cccnc23)CC1)c1coc2ccccc12 (centres unmarked) | Condition met |
| COc1cccc2c1occ2[C@H]1CC[C@@H](N2CCN(c3cc(F)cc4cccnc34)CC2)CC1 | Condition met |
| COc1cc(N2CCN([C@H]3CC[C@H](c4csc5ccccc54)CC3)CC2)c2ncccc2c1 | Condition met |
| Cc1cc(N2CCN(CCc3coc4cc(Cl)ccc34)CC2)c2ncccc2c1 | Condition not met |
| Fc1cc(N2CCN([C@H]3CC[C@@H](c4csc5ccccc54)CC3)CC2)c2ncccc2c1 | Condition not met |
| COc1ccc2occ(CC(C)N3CCN(c4cc(Cl)cc5cccnc45)CC3)c2c1 (centres unmarked) | Condition met |
